Below: a set of entries, each annotated with reported PBM binding z-score.
- Tested on: PPARg:RXRa DBDmut IVT, anti-RXR (DBD mutation: RXRa K156A/R161A, NR concentration 270 nM, RXRa partner concentration 90 nM)
- TEST_SUMMARY: PBM binding z-score (relative to random genomic background probes); higher = stronger binding; sequences stand for … in GC…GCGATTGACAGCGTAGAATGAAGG

{"columns": ["SEQ_STRING", "PBM binding z-score"],
 "data": [
  ["CAAACTAGGTCAAAGAGGTCAAAGTCCGTGCGTA", 8.36],
  ["AGAATGTGGTTAAGATCAGGGAAACAGAATACAT", -0.145],
  ["CAAACTAGGTCAAAGGTCCAAGTCGAGCCAACCA", 8.79],
  ["TATGCTAGGTCAACGATGGTCAGCTAATCTGCTA", 2.97],
  ["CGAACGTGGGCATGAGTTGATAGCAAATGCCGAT", -0.469],
  ["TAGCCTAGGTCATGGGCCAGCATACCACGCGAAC", 1.68],
  ["CCTTACGGGTCAATGTTATAGCACGGGTGGTACG", 1.71],
  ["TAGCCTACGTCATGCGGGCCAGTATAGTGTCGGC", -0.258],
  ["TCATATAGGTAAATGCTAGGTCAAAGTCCGATCT", 4.1],
  ["GCAGACAGGTGAAACGCATGTAACTCAGGGTGGC", 0.516],
  ["AGTCAAAGATCACTAGGTAACGTAAGATTCAGCT", 1.14],
  ["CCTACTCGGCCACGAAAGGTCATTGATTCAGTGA", 2.57],
  ["ACTATTAGTTGAGAGGAGGGCAACCGATAGGTTG", 0.402],
  ["GCAGACAGGTGAAACTCAGGTAACTCAGGGTGGC", 0.904],
  ["CGAGCTAGGTCATTGACAGGACAGTGAATAGTAA", 3.51],
  ["CCTAGCAGGGCAGGGTCACTCAAGCATTTCGCTT", 0.873],
  ["CCTACTGGGCCATCAGGTCATTGAGATCAACGTT", 4.42],
  ["CCGACTGGGGCAAAAGTTACCATACTCAGTACGA", 4.08],
  ["TCTCGGAGGACACGAATGGTCAGAGCTCGACATC", 1.33],
  ["CCTATTAGGTGACCATAAGGGCAACCGAAGCTCG", 5.2],
  ["CCGAGTAGGTTATGGGGCATTCAAGCAACGGTGA", 3.32],
  ["CCTACTGGGCAACGAAAGGTCATTGATTCAGTGA", 2.25],
  ["CGTACAAGGTCAATGCTAGGTCAGTGAAAGCATT", 4.05],
  ["ACCGAAAGGTCGTGAGGTGAGTATACAGAAAGGC", 0.638],
  ["ATATTTAGGTTACATCCGGGTCATTCAGGCTATG", 6.5],
  ["CAAACTAGGGCAAGGTCAAAGTCGGTTTGTGCCA", 7.65]
]}

---

- Tested on: PPARg:RXRa (NR concentration 180 nM, RXRa partner concentration 90 nM)
- TEST_SUMMARY: PBM binding z-score (relative to random genomic background probes); higher = stronger binding; sequences stand for … in GC…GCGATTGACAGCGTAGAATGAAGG
Classification field: enter True for PBM binding z-score values not below 2, False for values below it.

{"columns": ["SEQ_STRING", "DISCRETE_LABEL"],
 "data": [
  ["CAAACTAGGTCACCGGAAGGTCAAGGTCCGCATG", "True"],
  ["CCTACTTGGCCAAAAAGGTCATTGATGCCGATAA", "False"],
  ["CCAGATAGGTGAAAGGTAACTCAGTCTGGTACGC", "True"],
  ["AGCACGAGGGCACGCTGAGTTGATAGCAGAGTAG", "False"],
  ["CGTCCAAGGTCAAGGTCGGTGAAAGAGACTCGAA", "True"],
  ["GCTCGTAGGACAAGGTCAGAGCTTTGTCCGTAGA", "False"],
  ["AGTCAAAGTTCACTAGGTACCGTAAGATTCAGCT", "True"],
  ["CGTCACAGTTCAACTAAGGTAACGTAAAGCACGC", "False"],
  ["AGAATGAGGTTACCATAGATCAGGGAAACGCTTG", "True"],
  ["CGTCCAAGGTCAGAGAGGTCAGTGAGTGCCGAGT", "True"],
  ["TCTGGCAGGCCAGAGGGTCACTCAAGAGGTACGG", "False"],
  ["GTACCAAGGCGAATAGGTCGTTGATGAGTAGGCG", "False"],
  ["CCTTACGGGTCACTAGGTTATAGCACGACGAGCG", "True"],
  ["TCTCGGAGGACCCGAAAGGTCAGAGCTCGACATC", "False"],
  ["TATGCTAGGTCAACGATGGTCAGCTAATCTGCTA", "True"],
  ["AACGAAAGGTCGAGGTGAGTATAGAGAAAGGGAA", "True"],
  ["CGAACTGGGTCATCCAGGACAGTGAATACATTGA", "True"],
  ["ATCTTTAGGTAAAAGTTCAGTGAATCCCGAGGAT", "True"],
  ["TTTAGTTGGTCACGGAGGTCACACACGACGGGTA", "True"],
  ["ATCGAAAGGTCGTGGTGAGTATAGAGAAAGGGAA", "True"],
  ["CGGCCAAGGTCATAGGAGGTCAGTGAAGACAGAT", "True"],
  ["CCTAGTTGGGCAAGGTCACACACGCTATAGGTAC", "True"],
  ["ACTAGCAGGCTAAGTTTGGGTCACTCAAACAAAG", "False"],
  ["ACTATTAGTTGACTTAGGGCAACTGATACGACGC", "False"],
  ["ATCTCTAGGTAAAGATAGTTCAGTGGATGCAAAT", "False"],
  ["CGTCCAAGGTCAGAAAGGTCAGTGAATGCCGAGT", "True"]
]}

---

- Tested on: LXRb homodimer (NR concentration 270 nM)
- TEST_SUMMARY: PBM binding z-score (relative to random genomic background probes); higher = stronger binding; sequences stand for … in GC…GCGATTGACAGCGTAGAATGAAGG
# thresholds on PBM binding z-score define classes: band A (below -0.2), band B (-0.2 to below 0.3), band C (0.3 or more)

{"columns": ["SEQ_STRING", "DISCRETE_LABEL"],
 "data": [
  ["GCGAGTTGGTCAGTAAAAGGTCACACACCGGTCG", "band C"],
  ["CGTCCAACGTCAAAGGTCAGTGAAGAGATGACGG", "band B"],
  ["CCTAGCCGGCCAGGGTCACTCAAGCATTTCGCTT", "band A"],
  ["TGAGTGAGGTTAAAGATCAGGGAACGTGGCGTCG", "band C"],
  ["TCTCGTAGGACACGAAAGGTCAGAGCTCGACATC", "band B"],
  ["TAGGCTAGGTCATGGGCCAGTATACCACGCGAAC", "band A"],
  ["CCGATTGGGGCATAAGGTTACCATAAGCCAGCCC", "band A"],
  ["TCTATTAGTTGGAGGGCAACCGACGAGTCCGTTT", "band C"],
  ["TGACAAAGTTCAAAGGTAACGTAAGTATCCACAC", "band C"]
]}

---

- System: PPARg DBDmut IVT, anti-PPARg (DBD mutation: PPARg1 K132A/R137A, NR concentration 270 nM)
- TEST_SUMMARY: PBM binding z-score (relative to random genomic background probes); higher = stronger binding; sequences stand for … in GC…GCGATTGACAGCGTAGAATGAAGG
Below: a set of entries, each annotated with reported PBM binding z-score.

{"columns": ["SEQ_STRING", "PBM binding z-score"],
 "data": [
  ["TTACCCAGGTGAAAGGTCGTTGATGCACGCCTTG", 0.584],
  ["ATCTCAAGGTAACCAAGTTCAGTGAATGCCGAAC", 0.953],
  ["ATCTCTAGGTAAGACTCAGTACAGTGAAGAACGC", 1.12],
  ["CCTGCTAGGTCATGGTAAGCTAATCTACAGTATG", 0.561],
  ["ACCTCTAGGTAAAGATAGTTCAGTGAATGCAAAT", 0.355],
  ["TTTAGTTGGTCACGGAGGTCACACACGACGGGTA", 1.9],
  ["AGATCGAGGGCAATGAGTTGATAGCACGGGTGGC", -0.0429],
  ["CATCCTAGGTCAGGGCCAGTATAGGAGGAACGTT", -0.518],
  ["CCTGCTAGGTCATGGCCAGCTAATCTACAGTATG", -0.931],
  ["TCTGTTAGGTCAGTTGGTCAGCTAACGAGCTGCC", 2.08],
  ["CAAACTAGGTCAATAGGTCAAAGTCCGCTTCCCG", 0.687],
  ["GCTAGCAGGCCATTTGGGTAACTCAATGACGGGC", -1.22],
  ["CAAACTAGGTCAAGCTCAAAGTCGGTTTGTGCCA", 1.47],
  ["ATCTCTAGGTAAAGATAGTTCAATGAATGCAAAT", 1.22],
  ["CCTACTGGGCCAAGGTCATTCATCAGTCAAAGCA", -0.0447],
  ["TTACCAAGGTGAAGGTCATTGATCCCTCTGTAGA", -0.00818],
  ["GCTAGTTGGTCAGTAACAGGTCACACACCGGTCG", 0.285],
  ["AGAATGAGCTTATTAAGATCAGGGAATTGCGGTC", 0.244],
  ["CATACAGGGTCTGCTAGGCCAGAGTAGGGACGGC", -0.562],
  ["CGACCAAGGTCATAGGAGGTCAGTGAAGACAGAT", -0.258],
  ["GGAACGAGGGCAAGGTGATAGCAGAGTTTGATGG", -0.737],
  ["CCGACTGGGGCAGAAGGGTTACCATACCATCCGG", -1.22],
  ["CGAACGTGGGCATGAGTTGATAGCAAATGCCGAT", -1.08],
  ["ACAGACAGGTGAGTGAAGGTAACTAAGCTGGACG", -0.677],
  ["ATCTCTAGGTAAAGTTCAGTCAAAGATCGATAGA", 1.44],
  ["GCATATAGGTAATACGAGGTGAAAGTCCGATTGT", 1.33],
  ["CGAACGAGGGCGTGAGTTGATAGCAAATGCCGAT", -1.21],
  ["AGTCAACGTTCATCTAGGTAACGTAAGATATGCT", 0.334],
  ["TCATATAGGGAAAGGTGAAAGTCGAACGATATGA", 0.709],
  ["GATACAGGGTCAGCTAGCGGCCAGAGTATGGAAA", -0.868],
  ["ACTAGTTGGTCAGCTGAGGTCTCACACAATTCGG", 0.203],
  ["ACAGATAGGTGAGTGAAGGTAACTCAGCTGGACG", -0.218],
  ["AGAATGAGTTTATACGTAGATCAGGGAAGAAAGT", 0.612],
  ["TCTAGCAGGCCAGACGGTCACTCAAGAGGTACGG", -0.934],
  ["TCTAGTTGGTCAAAGGTCAGACACTCGAAATGCG", 0.417],
  ["ACTATTAGTTGACTCAGGGCAACCGATACGACGC", 1.08],
  ["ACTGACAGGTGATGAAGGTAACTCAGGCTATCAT", -0.0306],
  ["TCAGACAGCTGAAGGTAACTCAGGTACGCAGTCG", -0.614],
  ["AATACAGGGTCTTCGTAGGCCAGAGTACGCACAG", 0.68],
  ["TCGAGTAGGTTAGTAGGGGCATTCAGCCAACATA", 0.00263],
  ["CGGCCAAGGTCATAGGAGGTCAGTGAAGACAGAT", -0.774],
  ["TTACCAAGGTGAGCTGAGGTCGCTGATCCAACTC", -0.0566],
  ["ACGGACAGGTGAGTGAAGGTAACTCAGCTGGACG", -0.701],
  ["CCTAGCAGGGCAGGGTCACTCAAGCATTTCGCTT", -0.906],
  ["AGTTAAAGTTCACTAGGTAACGTAAGATTCAGCT", 1.19],
  ["TCGAGTAGGTTACCAATGGGGCATTCAACTTTCT", -0.457],
  ["CTCGAAAGGTCGGTTGAGGTGAGTACACGGATAA", -0.276],
  ["ATCGAAAGGTCGAAGTGAGTATAGAGAAAGGGAA", 1.1],
  ["CCAGACAGGTGAGAAGTTAACTCAGCCTCGATTA", -0.46],
  ["TCTCGGAGGACACGAAAGGTCAGAGCCCGACATC", -0.279],
  ["AGAATCAGGTTACCAAAGATCAGGGAAACGCTTG", 1.06]
]}

The values you see were collected from the supplement of paper PMC6555819.
